Recorded values, source patent US9321756B2.

Target: full length recombinant Pim-3 (Homo sapiens (Human))
Assay: Pim enzyme assay (HTRF, phosphorylation of biotinylated-BAD (S112) peptide), Pim-3
Assay type: biochemical
Conditions: Pim-3 enzyme assay; read-out: Pim3 IC50
Please go through the items and note down their pIC50.
Answers are plain numbers, as −log10 of the molar value.

Here's what some known entries look like.
• Nc1nnc(-c2ccc3[nH]cc(-c4cccc(N5CCOCC5)n4)c3c2)o1 = 8.24
• CC(C)Cn1cc(-c2c[nH]c3ccc(-c4nnc(N)o4)cc23)cn1 = 7.17
• Nc1nnc(-c2ccc3[nH]cc(-c4cncc(-c5ccccc5F)n4)c3c2)o1 = 8.11
• c1cc2[nH]cc(-c3cncc(C4CC4)n3)c2cc1-c1nnc(NC2CNC2)o1 = 9.46

Below are 4 molecules. Give each one its pIC50.
1. CCOc1cnc(-c2c[nH]c3ccc(-c4nnc(N)o4)cc23)cn1
2. Fc1ccccc1-c1c[nH]c2ccc(-c3nnc(NCC[C@H]4CCCCN4)s3)cc12 (stereo in doubt)
3. Cc1cn(-c2nc(-c3c[nH]c4ccc(-c5nnc(N)s5)cc34)cs2)cn1
4. COc1ccc(CNc2nnc(-c3ccc4[nH]cc(-c5cncc(C6CC6)n5)c4c3)o2)cc1 [Example 36, 2,2,2-trifluoroacetate]

Marked response:
1: 6.91; 2: 7.30; 3: 8.02; 4: 7.94

---

Biological target: full length recombinant Pim-3 (Homo sapiens (Human), UniProt Q86V86)
Experiment: Pim enzyme assay (HTRF, phosphorylation of biotinylated-BAD (S112) peptide), Pim-3
Format: biochemical
Conditions: Pim-3 enzyme assay; read-out: Pim3 IC50
Please go through the items and note down their IC50.
One number for each entry, in nM.

Here's what some known entries look like.
* Nc1nnc(-c2ccc3[nH]cc(-c4cccc(F)c4F)c3c2)o1 [Example 78] | 54.3
* Nc1nnc(-c2ccc3[nH]cc(-c4cnc(N5CCCC5)cn4)c3c2)s1 [Example 189] | 73.2
* Nc1nnc(-c2ccc3[nH]cc(-c4cccc(F)n4)c3c2)s1 [Example 209] | 149
* NCCCNc1nnc(-c2ccc3[nH]cc(-c4ccccc4F)c3c2)s1 [Example 12] | 13.7

Now let's try a different one.
Exam item: I would be grateful if you could share the reported IC50 for CNc1nnc(-c2ccc3[nH]cc(-c4cccc(N5CCCCC5=O)n4)c3c2)s1 [Example 236] .
Marked response: 114

---

Target: full length recombinant Pim-2 (Homo sapiens (Human))
Sequence (Q9P1W9 whole entry): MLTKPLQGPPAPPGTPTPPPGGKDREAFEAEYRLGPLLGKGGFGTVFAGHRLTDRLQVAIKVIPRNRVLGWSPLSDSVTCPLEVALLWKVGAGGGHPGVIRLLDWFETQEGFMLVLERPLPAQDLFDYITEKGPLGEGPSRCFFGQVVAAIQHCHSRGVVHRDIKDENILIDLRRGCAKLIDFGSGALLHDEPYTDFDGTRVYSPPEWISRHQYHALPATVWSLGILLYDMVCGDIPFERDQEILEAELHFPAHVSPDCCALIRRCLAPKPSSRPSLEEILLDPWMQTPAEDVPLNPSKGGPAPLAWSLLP
Test: Pim enzyme assay (HTRF, phosphorylation of biotinylated-BAD (S112) peptide), Pim-2
Assay type: biochemical
Settings: Pim-2 enzyme assay; read-out: Pim2_IC50
Please go through the items and note down their pIC50.
One number for each entry, as −log10 of the molar value.

Here's what some known entries look like.
* c1ccc(-c2nnc(-c3ccc4[nH]cc(-c5nccc(C6CC6)n5)c4c3)o2)cc1 | 6.17
* Nc1nnc(-c2ccc3[nH]cc(-c4cncc(NC5CCCC5)n4)c3c2)o1 | 8.70
* CN1CCN(c2cccc(-c3c[nH]c4ccc(-c5nnc(N)o5)cc34)n2)CC1 | 8.16
* c1cc(-c2c[nH]c3ccc(-c4nncs4)cc23)nc(N2CCOCC2)c1 | 6.81

Below are 2 molecules. Give each one its pIC50.
1. COc1cncc(-c2c[nH]c3ccc(-c4nnc(N)s4)cc23)n1
2. CC(C)(Nc1nnc(-c2ccc3[nH]cc(-c4ncccn4)c3c2)o1)c1ccccc1 [Example 52, 2,2,2-trifluoroacetate]

Marked response:
[7.52, 6.57]

Below are 6 molecules. Give each one its pIC50.
1. CN1CCCC(Nc2ccnc(-c3c[nH]c4ccc(-c5nnc(N)o5)cc34)n2)C1 (stereo not shown)
2. Nc1nnc(-c2ccc3[nH]cc(-c4cncc(N5CCC(F)(F)C5)n4)c3c2)o1
3. CC(C)(Nc1nnc(-c2ccc3[nH]cc(-c4cncc(C5CC5)n4)c3c2)o1)c1ccccc1
4. CC(C)Oc1cncc(-c2c[nH]c3ccc(-c4nnc(N)o4)cc23)n1
5. Nc1nnc(-c2ccc3[nH]cc(-c4cncc(C(=O)N5CCOCC5)c4)c3c2)o1
6. COc1cncc(-c2c[nH]c3ccc(-c4nnc(N)s4)cc23)c1

Marked response:
1: 8.18; 2: 8.19; 3: 6.52; 4: 8.29; 5: 5.75; 6: 6.21
